# System: vancomycin-resistant Enterococcus (VRE) clinical isolates
# method.notes: Broth microdilution MIC, clinical VRE isolates
# Format: cell-based, E. faecium
# measurement.setup: 3 isolates tested, susceptible = MIC up to 40 µM
Provide the recorded VRE isolates susceptible out of those tested for the entries that follow.

Consider the worked cases shown below.
CCCCCCC(=O)OCC1OC(n2cc(-c3ccccn3)nn2)C(OC(=O)CCCCCC)C(OC(=O)CCCCCC)C1OC(=O)CCCCCC.Cc1ccc(C(C)C)cc1.F[P-](F)(F)(F)(F)F.[Cl][Os+] (mixture of isomers) = 0/3
CCCCCCCC(=O)OCC1OC(n2cc(-c3ccccn3)nn2)C(OC(=O)CCCCCCC)C(OC(=O)CCCCCCC)C1OC(=O)CCCCCCC.Cc1ccc(C(C)C)cc1.F[P-](F)(F)(F)(F)F.[Cl][Os+] (mixture of isomers) = 0/3

Give me VRE isolates susceptible out of those tested for each of these molecules, listed below.
1. CCCCC(=O)OCC1OC(n2cc(-c3ccccn3)nn2)C(OC(=O)CCCC)C(OC(=O)CCCC)C1OC(=O)CCCC.Cc1ccc(C(C)C)cc1.F[P-](F)(F)(F)(F)F.[Cl][Os+] (mixture of isomers)
2. CCCC(=O)OCC1OC(n2cc(-c3ccccn3)nn2)C(OC(=O)CCC)C(OC(=O)CCC)C1OC(=O)CCC.Cc1ccc(C(C)C)cc1.F[P-](F)(F)(F)(F)F.[Cl][Os+] (mixture of isomers)
3. CCCCCC(=O)OCC1OC(n2cc(-c3ccccn3)nn2)C(OC(=O)CCCCC)C(OC(=O)CCCCC)C1OC(=O)CCCCC.Cc1ccc(C(C)C)cc1.F[P-](F)(F)(F)(F)F.[Cl][Os+] (mixture of isomers)

Result:
3/3
3/3
3/3

====

# method.notes: Determination of the distribution coefficients (logD)
# Assay type: physicochemical
# measurement.setup: distribution coefficient
I'd appreciate it if you could supply LogD values for the items below.
Numbers only.

Known LogD results, listed for orientation:
CCCC(=O)OCC1OC(n2cc(-c3ccccn3)nn2)C(OC(=O)CCC)C(OC(=O)CCC)C1OC(=O)CCC.Cc1ccc(C(C)C)cc1.F[P-](F)(F)(F)(F)F.[Cl][Os+] (mixture of isomers) = 2.5
Cc1ccc(C(C)C)cc1.F[P-](F)(F)(F)(F)F.O=C(OCC1OC(n2cc(-c3ccc4ccccc4n3)nn2)C(OC(=O)c2ccccc2)C(OC(=O)c2ccccc2)C1OC(=O)c1ccccc1)c1ccccc1.[Cl][Os+] (mixture of isomers) = 2.33
CCCCCCC(=O)OCC1OC(n2cc(-c3ccccn3)nn2)C(OC(=O)CCCCCC)C(OC(=O)CCCCCC)C1OC(=O)CCCCCC.Cc1ccc(C(C)C)cc1.F[P-](F)(F)(F)(F)F.[Cl][Os+] (mixture of isomers) = 2.7
CCCCC(=O)OCC1OC(n2cc(-c3ccccn3)nn2)C(OC(=O)CCCC)C(OC(=O)CCCC)C1OC(=O)CCCC.Cc1ccc(C(C)C)cc1.F[P-](F)(F)(F)(F)F.[Cl][Os+] (mixture of isomers) = 2.6
CCCCCCCC(=O)OCC1OC(n2cc(-c3ccccn3)nn2)C(OC(=O)CCCCCCC)C(OC(=O)CCCCCCC)C1OC(=O)CCCCCCC.Cc1ccc(C(C)C)cc1.F[P-](F)(F)(F)(F)F.[Cl][Os+] (mixture of isomers) = 2.8

Continue with the compound presented below.
Request: // fetch LogD given entry CCCCCC(=O)OCC1OC(n2cc(-c3ccccn3)nn2)C(OC(=O)CCCCC)C(OC(=O)CCCCC)C1OC(=O)CCCCC.Cc1ccc(C(C)C)cc1.F[P-](F)(F)(F)(F)F.[Cl][Os+] (mixture of isomers)
Result: 2.7

====

# Tested on: methicillin-resistant Staphylococcus aureus (MRSA) clinical isolates
# method.notes: Broth microdilution MIC, clinical MRSA isolates
# Format: cell-based
# measurement.setup: 6 clinical MRSA isolates
measurement.label: MIC against clinical MRSA isolates (as a group)

Cc1ccc(C(C)C)cc1.F[P-](F)(F)(F)(F)F.O=C(OCC1OC(n2cc(-c3ccc4ccccc4n3)nn2)C(OC(=O)c2ccccc2)C(OC(=O)c2ccccc2)C1OC(=O)c1ccccc1)c1ccccc1.[Cl][Os+] (mixture of isomers) = 5 µM
CCCCCCCC(=O)OCC1OC(n2cc(-c3ccccn3)nn2)C(OC(=O)CCCCCCC)C(OC(=O)CCCCCCC)C1OC(=O)CCCCCCC.Cc1ccc(C(C)C)cc1.F[P-](F)(F)(F)(F)F.[Cl][Os+] (mixture of isomers) = > 40 µM
CCCCCCC(=O)OCC1OC(n2cc(-c3ccccn3)nn2)C(OC(=O)CCCCCC)C(OC(=O)CCCCCC)C1OC(=O)CCCCCC.Cc1ccc(C(C)C)cc1.F[P-](F)(F)(F)(F)F.[Cl][Os+] (mixture of isomers) = > 40 µM

Next, consider the following compound.
Request: Give reported MIC against clinical MRSA isolates (as a group) value for Cc1ccc(C(C)C)cc1.F[P-](F)(F)(F)(F)F.O=C(OCC1OC(n2cc(-c3ccc4ccccc4n3)nn2)C(OC(=O)c2ccccc2)C(OC(=O)c2ccccc2)C1OC(=O)c1ccccc1)c1ccccc1.[Cl][Ru+] (mixture of isomers)
Result: 5 to 40 µM

====

# System: A2780 ovarian cancer cells
# method.notes: SRB assay (cytostasis, 48 h) on A2780 cells
# Assay type: cell-based
# measurement.setup: 48 h treatment
measurement.label: pIC50
Answers are plain numbers, as −log10 of the molar value.

Consider the worked cases shown below.
CCCCCC(=O)OCC1OC(n2cc(-c3ccccn3)nn2)C(OC(=O)CCCCC)C(OC(=O)CCCCC)C1OC(=O)CCCCC.Cc1ccc(C(C)C)cc1.F[P-](F)(F)(F)(F)F.[Cl][Os+] (mixture of isomers) [Os-4] = 5.41
CCCCCCC(=O)OCC1OC(n2cc(-c3ccccn3)nn2)C(OC(=O)CCCCCC)C(OC(=O)CCCCCC)C1OC(=O)CCCCCC.Cc1ccc(C(C)C)cc1.F[P-](F)(F)(F)(F)F.[Cl][Os+] (mixture of isomers) [Os-5] = 4.80
Cc1ccc(C(C)C)cc1.F[P-](F)(F)(F)(F)F.O=C(OCC1OC(n2cc(-c3ccc4ccccc4n3)nn2)C(OC(=O)c2ccccc2)C(OC(=O)c2ccccc2)C1OC(=O)c1ccccc1)c1ccccc1.[Cl][Ru+] (mixture of isomers) [Ru-7] = 6.07

Now turn to the next compound.
Request: Consider the compound CCCCC(=O)OCC1OC(n2cc(-c3ccccn3)nn2)C(OC(=O)CCCC)C(OC(=O)CCCC)C1OC(=O)CCCC.Cc1ccc(C(C)C)cc1.F[P-](F)(F)(F)(F)F.[Cl][Os+] (mixture of isomers) [Os-3] tested on A2780 ovarian cancer cells; state its pIC50.
Result: 5.68

====

# Test system: A2780 ovarian cancer cells
# method.notes: SRB assay (cytostasis, 48 h) on A2780 cells
# Type: cell-based
# measurement.setup: 48 h treatment
Provide the recorded IC50 for the entries that follow.
Answers are plain numbers, in nM.

Sample records with IC50:
Cc1c(C)c(C)[c-](C)c1C.F[P-](F)(F)(F)(F)F.O=C(OCC1OC(n2cc(-c3ccc4ccccc4n3)nn2)C(OC(=O)c2ccccc2)C(OC(=O)c2ccccc2)C1OC(=O)c1ccccc1)c1ccccc1.[Cl][Ir+2] (mixture of isomers) [Ir-7] = 891
Cc1ccc(C(C)C)cc1.F[P-](F)(F)(F)(F)F.O=C(OCC1OC(n2cc(-c3ccc4ccccc4n3)nn2)C(OC(=O)c2ccccc2)C(OC(=O)c2ccccc2)C1OC(=O)c1ccccc1)c1ccccc1.[Cl][Os+] (mixture of isomers) [Os-7] = 578

Request: Please look at this compound and report its IC50: CCCC(=O)OCC1OC(n2cc(-c3ccccn3)nn2)C(OC(=O)CCC)C(OC(=O)CCC)C1OC(=O)CCC.Cc1ccc(C(C)C)cc1.F[P-](F)(F)(F)(F)F.[Cl][Os+] (mixture of isomers) [Os-2]
Result: 6230

====

# Tested on: vancomycin-resistant Enterococcus (VRE) clinical isolates
# method.notes: Broth microdilution MIC, clinical VRE isolates
# Type: cell-based, E. faecium
# measurement.setup: clinical isolate 27 085, wound, 2018
Exercise: state measured MIC, VRE 27 085 for each of the compounds provided.
Numbers only, in µM.

Take a look at these entries with their results.
Cc1ccc(C(C)C)cc1.F[P-](F)(F)(F)(F)F.O=C(OCC1OC(n2cc(-c3ccc4ccccc4n3)nn2)C(OC(=O)c2ccccc2)C(OC(=O)c2ccccc2)C1OC(=O)c1ccccc1)c1ccccc1.[Cl][Os+] (mixture of isomers) = 10
CCCCCC(=O)OCC1OC(n2cc(-c3ccccn3)nn2)C(OC(=O)CCCCC)C(OC(=O)CCCCC)C1OC(=O)CCCCC.Cc1ccc(C(C)C)cc1.F[P-](F)(F)(F)(F)F.[Cl][Os+] (mixture of isomers) = 40

Request: Write down MIC, VRE 27 085 measured for item CCCC(=O)OCC1OC(n2cc(-c3ccccn3)nn2)C(OC(=O)CCC)C(OC(=O)CCC)C1OC(=O)CCC.Cc1ccc(C(C)C)cc1.F[P-](F)(F)(F)(F)F.[Cl][Os+] (mixture of isomers)
Result: 10
